- TESTED TARGET: T1, KDpeptide2
- T1 construct: Synthetic peptide (Anaspec) coated on ELISA plates at 800 ng per well
- T1 peptide: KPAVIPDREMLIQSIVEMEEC
- PROCEDURE DETAILS: ELISA on coated synthetic peptides, direct comparison
OBSERVATION TYPE: binding result

Solved cases (4 shown):
BINDER	binding result
KD2-1D10 (antibody, V domains shown) VH: EVQLVESGGGLIHPGGSLRLSCAASGFTFSSYWMHWVRQAPGKGLVWVSHIKSDGSNTIYADSVKGRFTISRDNAKNTLYLQMNSLRAEDTAVYYCGRGRSLTPRSAIDYWGQGTLVTV VL: QSALTQPPSASGSPGQSVTITCTGTSSDVGGYNYVSWYQQHPGKAPKLMIYEVSKRPSGVPDRFSGSKSGNTASLTVSGLQAEDEADYHCSSFAGDNNSPVFGGGTKLTVL	binds
KD1-2B1 (antibody, V domains shown) VH: EVQLVESGGGLVQPGGSLRLSCAASGFTFSSYWMHWVRQAPGKGLVWVSRINNDGSSTGYADSVEGRFTISRDNAKNTLYLQINSLRAEDTAVYYCARQDGHYYYSMDVWGQGTTVTV VL: QSALTQPRSVSGSPGQSVTISCTGTSSDVGGYNYVSWYQQHPGKAPKLMIYDVSERPSGVPARFSGSKSGNTASLTISGLQAEDEADYYCCSYAGNFRWVFGGGTKLTVL	binds
KD1-1H8 (antibody, V domains shown) VH: EVQLVESGGGSVQPGGSLRLSCAASGFTFSNYWMHWVRQAPGKGLVWVSRLNIDGSNTFYADSVKGRFTISRDNAKNTLYLQMNSLRAEDTAVYYCVRGGSDSGDSVPFDLWGRGTLVTVS VL: EIVMTQSPATLSVSPGERATLSCRASQSVSSNLAWYQQNPGQAPRLLIYGASTRATGIPARFSGSGSGTEFTLTISSLQSEDFAVYYCQHYNNWPFTFGQGTKVEIK	binds
KD5-2D7 (antibody, V domains shown) VH: EVQLVESGGGLVQPGGSLGLSCAASGFTFSNYWMHWVRQAPGKGLVWVSRINSDGSDTSYADSVKGRFTISRDNAENTLYLHMSSLRAEDTAVYYCARELGYGDYGMDVWGKGTTVTVS VL: QSVLTQPPSASGTPGQRVTISCSGSSSNIGSHSVIWYQQLPGTAPKLLVYSDNQRPSGVPDRFSGSKSGTSASLAISGLQSEDEADYYCAAWDDSLNHLHVVFGGGTKLTVL	binds

Could you now look at the following binder, please?
input: Entry KD11-2E4 (antibody, V domains shown) VH: EVQLVESGGGVVQPGESLRLSCAASGVTFSSYWMHWVRQVPGKGLVWVARINIDGTSTTYADCVKGRFTISRDNAKNTLYLQMSSLRAEDTAVYYCATERGLLSGGRWHSSHFDYWGQGTLVTVS VL: DIQMTQSPSTLSASVGDRVTITCRASQSISSWLAWYQQKPGKAPKVLIYKTSSLESGVPSRFSGSGSGTEFTLTISSLQPDDFATYYCQQYDSSSLTWTFGQGTKVEIK : reported binding result = ?
output: binds

Data origin: patent US20250172552A1
